Source of measurements: patent US20240317852A1

target: T1, biotinylated human CD33 full-length extracellular domain (residues 18-259) with C-terminal Fc tag and Avi tag (human, UniProt P20138 18-259, biotinylated with BirA-GST (Avi tag)); assay: SPR (ProteOn XPR36), biotinylated full-length CD33 ECD on NLC chip, DARPin at 50 nM, single trace
T1 construct: Bought from Evitria; also called bio.hCD33; bio.hCD33 full-length target; not shown: C-terminal Fc tag and Avi tag
T1 sequence (P20138 18-259 R69G limits assumed): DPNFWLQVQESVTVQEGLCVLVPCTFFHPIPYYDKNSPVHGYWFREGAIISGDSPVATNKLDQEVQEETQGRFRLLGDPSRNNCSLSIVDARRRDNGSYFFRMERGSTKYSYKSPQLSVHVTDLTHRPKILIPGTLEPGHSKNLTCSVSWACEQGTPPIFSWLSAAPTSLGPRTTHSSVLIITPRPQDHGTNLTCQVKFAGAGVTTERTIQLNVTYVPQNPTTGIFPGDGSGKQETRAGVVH
Below is a list of entries, each paired with its recorded Kd value.
Just the number in nM, nothing appended.

Answered cases to consult:
DARPin® protein #15 in TCE format (formatted with a CD3-specific ankyrin repeat domain) (designed binder, Crude extract HTRF construct also carried a C-terminal Flag tag; not shown: which one,) MRGSHHHHHHGSDLGKKLLQAARAGQLDEVRELLKAGADVNAKDLIGWTPLHLAAHYGHLEIVEVLLKAGADVNAKDAQGWTPLHIAAWEGHLEIVEVLLKAGADVNAKDWTGETPLHLAAFEGHLEIVEVLLKAGADVNAQDKSGKTPADLAARAGHQDIAEVLQKAA : 17
DARPin® protein #1 in TCE format (formatted with a CD3-specific ankyrin repeat domain) (designed binder, not shown: which one,) MRGSHHHHHHGSDLGWKLLLAASRGQDDEVRILLAAGADVNAKDIDEGYTPLHIAAYYGHLEIVEVLLKAGADVNAKDRYGKTPLHLAAISGHEDIAEVLLKAGADVNAQDDKGDTPADLAADYGHEDIAEVLQKAA : 4.8
DARPin® protein #8 in TCE format (formatted with a CD3-specific ankyrin repeat domain) (designed binder, Crude extract HTRF construct also carried a C-terminal Flag tag; not shown: which one,) MRGSHHHHHHGSDLGWKLLSAATLGQDDEVRILLAAGADVNAKDEWGKTPLHWAASTGHLEIVEVLLKAGADVNAKDLWGHTPLHEAAAKGHLEIVEVLLKAGADGNAQDNIGDTPADLAAYQGHEDIAEVLQKAA : 2.3
DARPin® protein #3 in TCE format (formatted with a CD3-specific ankyrin repeat domain) (designed binder, Crude extract HTRF construct also carried a C-terminal Flag tag; not shown: which one,) MRGSHHHHHHGSDLGVKLLRAAFHGQDDEVRILLAAGADVNAKDTDGETPLHYAAQFGHLEIVEVLLKAGADVNAKDAYGATPLHWAAWHGHLEIVEVLLKAGADVNAQDVSGATPADLAAKVGHEDIAEVLQKAA : 7.4
DARPin® protein #5 in TCE format (formatted with a CD3-specific ankyrin repeat domain) (designed binder, Crude extract HTRF construct also carried a C-terminal Flag tag; not shown: which one,) MRGSHHHHHHGSDLSKKLLQAARAGQLDEVRELLKAGADVNAKDQIGQTPLHLAAQSGHLEIVEVLLKAGADVNAKDTEGWTPLHVAAWEGHLEIVEVLLKAGADVNAKDWTGETPLHLAAYQGHLEIVEVLLKAGADVNAQDKSGKTPADLAARAGHQDIAEVLQKAA : 12
DARPin® protein #14 in TCE format (formatted with a CD3-specific ankyrin repeat domain) (designed binder, Crude extract HTRF construct also carried a C-terminal Flag tag; not shown: which one,) MRGSHHHHHHGSDLGWKLLNAAIAGQDDEVRILLAAGADVNAKDTEYGWTPLHIAASDGHLEIVEVLLKAGADVNAKDYAGSTPLHAAAFVGHLEIVEVLLKAGADVNAQDHQGQTPADLAAQQGHVDIAEVLQKAA : 0.64

The binder listed as DARPin® protein #7 in TCE format (formatted with a CD3-specific ankyrin repeat domain) (designed binder, Crude extract HTRF construct also carried a C-terminal Flag tag; not shown: which one,) MRGSHHHHHHGSDLGLKLLRAAYDGQDDEVRILLAAGADVNAKDWQGFTPLHYAAVLGHLEIVEVLLKAGADVNAKDQEGATPLHLAALHGHLEIVEVLLKAGADVNAQDESGWTPADLAAKWGHEDIAEVLQKAA has a reported Kd of 0.47

Sure, the documented Kd for DARPin® protein #9 in TCE format (formatted with a CD3-specific ankyrin repeat domain) (designed binder, Crude extract HTRF construct also carried a C-terminal Flag tag; not shown: which one,) MRGSHHHHHHGSDLGYKLLWAASAGQDDEVRILLAAGADVNAKDKDGATPLHFAAAKGHLEIVEVLLKAGADVNAKDNRGATPLHYVAAASGHLEIVEVLLKAGADVNAQDEWGNTPADLAAIYGHGDIAEVLQKAA is 0.76
